Tested on: Escherichia coli
ASSAY_PROCEDURE: Antimicrobial activity in Escherichia coli TOP10 strain
Type: functional
In this section we review reported MIC values for a set of molecules.

{"STRUCTURE_SMILES": "CO[C@@]1(NC(=O)Cc2cccs2)C(=O)N2C(C(=O)O)=C(COC(N)=O)CS[C@@H]21", "MIC": "4 µg/mL"}
{"STRUCTURE_SMILES": "C[C@@H](O)[C@H]1C(=O)N2C(C(=O)O)=C(S[C@@H]3CN[C@H](C(=O)N(C)C)C3)[C@H](C)[C@H]12", "MIC": "0.016 µg/mL"}
{"STRUCTURE_SMILES": "CO/N=C(\\C(=O)N[C@@H]1C(=O)N2C(C(=O)O)=C(COC(N)=O)CS[C@H]12)c1ccco1", "MIC": "2 µg/mL"}
{"STRUCTURE_SMILES": "CCN1CCN(C(=O)N[C@@H](C(=O)N[C@@H]2C(=O)N3[C@@H]2SC(C)(C)[C@@H]3C(=O)O)c2ccccc2)C(=O)C1=O", "MIC": "1 µg/mL"}
{"STRUCTURE_SMILES": "CC1(C)S[C@@H]2[C@H](NC(=O)[C@H](N)c3ccc(O)cc3)C(=O)N2[C@H]1C(=O)O", "MIC": "4 µg/mL"}
{"STRUCTURE_SMILES": "CC(C)(O/N=C(\\C(=O)N[C@@H]1C(=O)N2C(C(=O)[O-])=C(C[n+]3ccccc3)CS[C@H]12)c1csc(N)n1)C(=O)O", "MIC": "0.06 µg/mL"}
{"STRUCTURE_SMILES": "C[C@@H](O)[C@H]1C(=O)N2C(C(=O)O)=C(S[C@@H]3CN[C@H](C(=O)Nc4cccc(C(=O)O)c4)C3)[C@H](C)[C@H]12", "MIC": "0.006 µg/mL"}
{"STRUCTURE_SMILES": "CO/N=C(\\C(=O)N[C@@H]1C(=O)N2C(C(=O)[O-])=C(C[n+]3cccc4c3CCC4)CS[C@H]12)c1csc(N)n1", "MIC": "0.06 µg/mL"}
{"STRUCTURE_SMILES": "CO/N=C(\\C(=O)N[C@@H]1C(=O)N2C(C(=O)O)=C(COC(C)=O)CS[C@H]12)c1csc(N)n1", "MIC": "0.12 µg/mL"}
{"STRUCTURE_SMILES": "CC1(C)S[C@@H]2[C@H](NC(=O)[C@H](C(=O)O)c3ccsc3)C(=O)N2[C@H]1C(=O)O", "MIC": "4 µg/mL"}

----------
System: Escherichia coli
ASSAY_PROCEDURE: microbe, parasite or virus in culture
Assay type: functional
EXPERIMENTAL_SETUP: TOP10
In this section we review reported log10(MIC) values for a set of molecules.
MEASURED_PROPERTY: log10(MIC) (log10 of the value in µg/mL)

{"STRUCTURE_SMILES": "CCN1CCN(C(=O)N[C@@H](C(=O)N[C@@H]2C(=O)N3[C@@H]2SC(C)(C)[C@@H]3C(=O)O)c2ccccc2)C(=O)C1=O", "ASSAY_TARGET": "Escherichia coli", "log10(MIC)": 2.41}
{"STRUCTURE_SMILES": "CO[C@@]1(NC(=O)Cc2cccs2)C(=O)N2C(C(=O)O)=C(COC(N)=O)CS[C@@H]21", "ASSAY_TARGET": "Escherichia coli", "log10(MIC)": 2.41}
{"STRUCTURE_SMILES": "CO/N=C(\\C(=O)N[C@@H]1C(=O)N2C(C(=O)O)=C(COC(C)=O)CS[C@H]12)c1csc(N)n1", "ASSAY_TARGET": "Escherichia coli", "log10(MIC)": 1.81}
{"STRUCTURE_SMILES": "CO/N=C(\\C(=O)N[C@@H]1C(=O)N2C(C(=O)[O-])=C(C[n+]3cccc4c3CCC4)CS[C@H]12)c1csc(N)n1", "ASSAY_TARGET": "Escherichia coli", "log10(MIC)": 0.30}
{"STRUCTURE_SMILES": "C[C@@H](O)[C@H]1C(=O)N2C(C(=O)O)=C(S[C@@H]3CN[C@H](C(=O)Nc4cccc(C(=O)O)c4)C3)[C@H](C)[C@H]12", "ASSAY_TARGET": "Escherichia coli", "log10(MIC)": 0.30}
{"STRUCTURE_SMILES": "C[C@@H](O)[C@H]1C(=O)N2C(C(=O)O)=C(S[C@@H]3CN[C@H](C(=O)N(C)C)C3)[C@H](C)[C@H]12", "ASSAY_TARGET": "Escherichia coli", "log10(MIC)": 0.00}
{"STRUCTURE_SMILES": "CC(C)(O/N=C(\\C(=O)N[C@@H]1C(=O)N2C(C(=O)[O-])=C(C[n+]3ccccc3)CS[C@H]12)c1csc(N)n1)C(=O)O", "ASSAY_TARGET": "Escherichia coli", "log10(MIC)": 1.51}

----------
Tested on: Escherichia coli
ASSAY_PROCEDURE: microbe, parasite or virus in culture
Type: functional
EXPERIMENTAL_SETUP: TOP10

{"STRUCTURE_SMILES": "CC1(C)S[C@@H]2[C@H](NC(=O)[C@H](N)c3ccc(O)cc3)C(=O)N2[C@H]1C(=O)O", "MIC": "> 512 µg/mL"}
{"STRUCTURE_SMILES": "CC1(C)S[C@@H]2[C@H](NC(=O)[C@H](C(=O)O)c3ccsc3)C(=O)N2[C@H]1C(=O)O", "MIC": "> 512 µg/mL"}
{"STRUCTURE_SMILES": "CO/N=C(\\C(=O)N[C@@H]1C(=O)N2C(C(=O)O)=C(COC(N)=O)CS[C@H]12)c1ccco1", "MIC": "> 512 µg/mL"}

Where do these numbers come from? They come from ChEMBL document CHEMBL1212781.
